TARGET UNDER TEST: MBP-FoxP1dN (Mus musculus, UniProt P58462 326-579)
Sequence: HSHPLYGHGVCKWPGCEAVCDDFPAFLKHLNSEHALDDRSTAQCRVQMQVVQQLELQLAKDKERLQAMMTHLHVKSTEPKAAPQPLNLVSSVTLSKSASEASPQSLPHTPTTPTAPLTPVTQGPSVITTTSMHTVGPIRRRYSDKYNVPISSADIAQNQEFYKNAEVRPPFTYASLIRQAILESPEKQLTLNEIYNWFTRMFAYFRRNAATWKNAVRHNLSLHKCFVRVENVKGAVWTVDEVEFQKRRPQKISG
METHOD NOTES: PD-seq (MBP pull-down with sequencing); 20 mM Tris-HCl pH 7.5, 100 mM NaCl, 1.5 mM MgCl2, 0.4 uM protein, 0.1 uM dsDNA library, 30 min, room temperature, amylose pull-down; high values mean tight binding
ASSAY SETUP: protein: recombinant; tags: His6-MBP; chain copies: 2; dsDNA, one strand shown
In all, about 16,000 sequences were measured (“rpm ratio (pull-down/input)”: median about 0.94, highest 2% from about 1.7 on). The list comes from a sample in which the highest values are over-represented; it also holds close analogues and randomly drawn sequences.
READOUT NAME: binding signal

                             query_sequence    readout_name                            result
0  GATGATTGTTCTCCCAGCTGATGAATTATCTGTATCGAGTAAACAAATTTTCCTAATCTTTCTGTTCAAGCGCCATCTAC  binding signal   1.1 RPM ratio (pull-down/input)
1  GATGATTGTTCTCCCAGCTGATGAATTTGTATTATCGAGTAAACAAATTTTCCTAATCTTTCTGTTCAAGCGCCATCTAC  binding signal  2.13 RPM ratio (pull-down/input)
2  GATGATTGTTCTCCCAGCTGATGAATTGAGTGTATCGAGTAAACAAATTTTCCTAATCTTTCTGTTCAAGCGCCATCTAC  binding signal  1.16 RPM ratio (pull-down/input)
3  GATGATTGTTCTCCCAGCTGATGAATTAAACATATCGAGTAAACAAATTTTCCTAATCTTTCTGTTCAAGCGCCATCTAC  binding signal   1.4 RPM ratio (pull-down/input)

###

# binding signal per entry
TARGET UNDER TEST: MBP-FoxP1dN (Mus musculus, UniProt P58462 326-579)
Sequence: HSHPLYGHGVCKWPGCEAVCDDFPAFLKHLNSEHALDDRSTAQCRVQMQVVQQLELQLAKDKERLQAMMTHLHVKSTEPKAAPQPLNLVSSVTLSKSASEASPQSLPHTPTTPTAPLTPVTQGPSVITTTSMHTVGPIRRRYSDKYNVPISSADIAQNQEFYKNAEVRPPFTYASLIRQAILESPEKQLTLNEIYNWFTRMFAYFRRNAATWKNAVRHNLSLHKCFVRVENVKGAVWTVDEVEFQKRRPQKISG
METHOD NOTES: PD-seq (MBP pull-down with sequencing); 20 mM Tris-HCl pH 7.5, 100 mM NaCl, 1.5 mM MgCl2, 0.4 uM protein, 0.1 uM dsDNA library, 30 min, room temperature, amylose pull-down; high values mean tight binding
ASSAY SETUP: protein: recombinant; tags: His6-MBP; chain copies: 2; dsDNA, one strand shown
The full ranking holds about 16,000 sequences; the median of “rpm ratio (pull-down/input)” is about 0.94, and the highest 2% start at about 1.7. Many of the other results were omitted from the sample, so the highest values are more common in it than they were.
READOUT NAME: binding signal

>>> print(df.to_string())
                              query_sequence                             result
 0  GATGATTGTTCTCCCAGCTGATGAATTTTTTACTTCGAGTAAACAAATTTTCCTAATCTTTCTGTTCAAGCGCCATCTAC   1.05 RPM ratio (pull-down/input)
 1  GATGATTGTTCTCCCAGCTGATGAATTTTTGTATTCGAGTAAACAAATTTTCCTAATCTTTCTGTTCAAGCGCCATCTAC    1.8 RPM ratio (pull-down/input)
 2  GATGATTGTTCTCCCAGCTGATGAATTTTGTATTTCGAGTAAACAAATTTTCCTAATCTTTCTGTTCAAGCGCCATCTAC   1.42 RPM ratio (pull-down/input)
 3  GATGATTGTTCTCCCAGCTGATGAATTTCGTTAATCGAGTAAACAAATTTTCCTAATCTTTCTGTTCAAGCGCCATCTAC  0.996 RPM ratio (pull-down/input)
 4  GATGATTGTTCTCCCAGCTGATGAATTGTTTACTTCGAGTAAACAAATTTTCCTAATCTTTCTGTTCAAGCGCCATCTAC   2.82 RPM ratio (pull-down/input)
 5  GATGATTGTTCTCCCAGCTGATGAATTATTCTTTTCGAGTAAACAAATTTTCCTAATCTTTCTGTTCAAGCGCCATCTAC   1.17 RPM ratio (pull-down/input)
 6  GATGATTGTTCTCCCAGCTGATGAATTCCGACCATCGAGTAAACAAATTTTCCTAATCTTTCTGTTCAAGCGCCATCTAC  0.869 RPM ratio (pull-down/input)
 7  GATGATTGTTCTCCCAGCTGATGAATTCTGTATTTCGAGTAAACAAATTTTCCTAATCTTTCTGTTCAAGCGCCATCTAC   1.18 RPM ratio (pull-down/input)
 8  GATGATTGTTCTCCCAGCTGATGAATTACTTTGGTCGAGTAAACAAATTTTCCTAATCTTTCTGTTCAAGCGCCATCTAC  0.952 RPM ratio (pull-down/input)
 9  GATGATTGTTCTCCCAGCTGATGAATTGTTGTATTCGAGTAAACAAATTTTCCTAATCTTTCTGTTCAAGCGCCATCTAC   2.21 RPM ratio (pull-down/input)
10  GATGATTGTTCTCCCAGCTGATGAATTAACGAGCTCGAGTAAACAAATTTTCCTAATCTTTCTGTTCAAGCGCCATCTAC   0.81 RPM ratio (pull-down/input)
11  GATGATTGTTCTCCCAGCTGATGAATTGTGAAAGTCGAGTAAACAAATTTTCCTAATCTTTCTGTTCAAGCGCCATCTAC   1.01 RPM ratio (pull-down/input)
12  GATGATTGTTCTCCCAGCTGATGAATTTCTGTATTCGAGTAAACAAATTTTCCTAATCTTTCTGTTCAAGCGCCATCTAC    1.3 RPM ratio (pull-down/input)
13  GATGATTGTTCTCCCAGCTGATGAATTGCCAATTTCGAGTAAACAAATTTTCCTAATCTTTCTGTTCAAGCGCCATCTAC   1.04 RPM ratio (pull-down/input)
14  GATGATTGTTCTCCCAGCTGATGAATTGTATTATTCGAGTAAACAAATTTTCCTAATCTTTCTGTTCAAGCGCCATCTAC   1.67 RPM ratio (pull-down/input)
